The following molecules are shown together with reported IC50 values.
Target: Human recombinant DHX9 protein (Homo sapiens (Human), UniProt Q08211)
Sequence (Q08211 whole entry): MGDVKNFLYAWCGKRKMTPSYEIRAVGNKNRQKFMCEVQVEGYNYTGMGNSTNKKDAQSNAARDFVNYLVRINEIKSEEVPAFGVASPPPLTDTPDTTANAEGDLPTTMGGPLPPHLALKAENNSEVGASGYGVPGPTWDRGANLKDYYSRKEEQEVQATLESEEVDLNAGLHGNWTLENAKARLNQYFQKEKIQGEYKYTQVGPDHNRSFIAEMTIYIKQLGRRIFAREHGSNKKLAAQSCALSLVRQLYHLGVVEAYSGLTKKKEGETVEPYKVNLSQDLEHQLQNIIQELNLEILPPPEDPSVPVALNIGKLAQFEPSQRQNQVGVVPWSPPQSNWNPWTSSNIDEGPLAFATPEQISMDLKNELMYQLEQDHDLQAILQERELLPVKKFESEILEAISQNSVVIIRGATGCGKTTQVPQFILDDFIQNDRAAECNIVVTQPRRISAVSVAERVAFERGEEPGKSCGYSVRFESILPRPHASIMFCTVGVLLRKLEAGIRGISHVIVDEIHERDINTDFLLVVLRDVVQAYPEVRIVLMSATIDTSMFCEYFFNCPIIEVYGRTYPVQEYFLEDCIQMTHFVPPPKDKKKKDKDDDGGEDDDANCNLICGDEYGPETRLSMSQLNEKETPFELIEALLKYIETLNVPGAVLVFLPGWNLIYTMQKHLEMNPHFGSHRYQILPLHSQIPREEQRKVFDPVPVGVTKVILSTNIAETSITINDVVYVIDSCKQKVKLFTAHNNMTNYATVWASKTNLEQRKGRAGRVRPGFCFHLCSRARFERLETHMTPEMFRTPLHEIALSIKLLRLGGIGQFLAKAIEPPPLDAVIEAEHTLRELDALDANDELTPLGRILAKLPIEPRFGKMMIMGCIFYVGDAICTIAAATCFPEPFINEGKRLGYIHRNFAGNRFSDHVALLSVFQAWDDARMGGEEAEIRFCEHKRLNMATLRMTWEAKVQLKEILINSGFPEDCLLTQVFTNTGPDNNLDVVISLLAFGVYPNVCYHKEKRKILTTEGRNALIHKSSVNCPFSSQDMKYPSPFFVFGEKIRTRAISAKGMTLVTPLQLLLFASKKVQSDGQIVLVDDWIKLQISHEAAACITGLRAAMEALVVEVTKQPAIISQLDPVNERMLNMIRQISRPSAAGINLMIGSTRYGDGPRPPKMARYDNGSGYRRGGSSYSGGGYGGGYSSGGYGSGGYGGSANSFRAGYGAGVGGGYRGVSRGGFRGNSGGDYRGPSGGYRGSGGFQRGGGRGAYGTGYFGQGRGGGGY
Experiment: DHX9 ATPase assay (ADP-Glo)
Settings: read-out: DHX9 Biochemical Inflection Point

[
  {
    "Molecule": "Cc1sc(C(=O)Nc2cc(F)cc(NS(C)(=O)=O)c2)cc1-c1ncc(N2CC(C(F)(F)F)C2)cc1F",
    "Unit": "nM",
    "IC50": 70.9
  },
  {
    "Molecule": "Cc1sc(C(=O)Nc2cc(Cl)cc(NS(C)(=O)=O)c2)cc1-c1ncc(N2CC3C(C2)C3(C)C)cc1F (stereo not shown)",
    "Unit": "nM",
    "IC50": 312
  },
  {
    "Molecule": "Cc1sc(C(=O)Nc2cc(Cl)cc(NS(C)(=O)=O)c2)cc1-c1c(F)cc(F)cc1F",
    "Unit": "nM",
    "IC50": 874
  },
  {
    "Molecule": "CC(Oc1cccnc1-n1cc(C(=O)Nc2cc(Cl)cc(NS(C)(=O)=O)c2)cn1)c1ccccc1 (stereo not shown)",
    "Unit": "nM",
    "IC50": 211
  }
]
